B1: library; numbered along this chain (parent)
chain: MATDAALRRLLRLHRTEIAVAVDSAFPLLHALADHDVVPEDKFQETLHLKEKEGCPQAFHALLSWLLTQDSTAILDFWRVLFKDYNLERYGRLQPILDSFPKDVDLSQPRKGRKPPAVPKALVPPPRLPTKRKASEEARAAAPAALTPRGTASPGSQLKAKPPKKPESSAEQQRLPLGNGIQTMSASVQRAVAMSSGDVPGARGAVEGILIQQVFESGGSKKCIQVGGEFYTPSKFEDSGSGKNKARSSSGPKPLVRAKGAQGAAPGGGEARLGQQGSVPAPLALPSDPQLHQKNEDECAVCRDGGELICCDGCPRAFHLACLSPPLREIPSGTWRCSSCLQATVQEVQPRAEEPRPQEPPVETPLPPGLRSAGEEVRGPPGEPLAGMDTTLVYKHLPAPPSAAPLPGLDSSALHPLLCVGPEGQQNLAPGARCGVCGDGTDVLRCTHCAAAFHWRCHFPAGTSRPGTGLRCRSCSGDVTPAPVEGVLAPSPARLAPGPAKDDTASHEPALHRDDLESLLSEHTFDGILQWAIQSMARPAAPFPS

Variants of: B1
METHOD_DESCRIPTION: AIRE transcriptional activation functional score (insulin promoter-GFP; nonsense median 0, synonymous median 1) (normalised score); higher = higher AIRE activity (more reporter activation)
MEASUREMENT_PARAMETERS: with insulin promoter-GFP reporter in HEK293
OUTCOME_MEASURE: AIRE transcriptional activation functional score
Reply with the value as a number alone.

- MUTATIONS: "Q225G"
  MEASURED_NUMBER: 0.56
- MUTATIONS: "G218Q"
  MEASURED_NUMBER: -0.344
- MUTATIONS: "K164C"
  MEASURED_NUMBER: 0.129
- MUTATIONS: "P148L"
  MEASURED_NUMBER: 1.45
- MUTATIONS: "V20W"
  MEASURED_NUMBER: 0.633

// A141I : AIRE transcriptional activation functional score value = 0.758

// C310T : AIRE transcriptional activation functional score value = 0.959

// L414I : AIRE transcriptional activation functional score value = 1.45

// D439L : AIRE transcriptional activation functional score value = 0.586

// G379C : AIRE transcriptional activation functional score value = 0.863

// R149P : AIRE transcriptional activation functional score value = 0.874

// F543T : AIRE transcriptional activation functional score value = 0.669

// L366K : AIRE transcriptional activation functional score value = 1.37

// Q346F : AIRE transcriptional activation functional score value = 0.819

// S332I : AIRE transcriptional activation functional score value = 0.887

// G274R : AIRE transcriptional activation functional score value = 0.983

// R203A : AIRE transcriptional activation functional score value = 1.19

// W65E : AIRE transcriptional activation functional score value = 0.0731

// R336Q : AIRE transcriptional activation functional score value = 0.346
